- SUBJECT_OF_TEST: Smoothened (Homo sapiens, UniProt Q99835)
- Sequence (Q99835 28-787): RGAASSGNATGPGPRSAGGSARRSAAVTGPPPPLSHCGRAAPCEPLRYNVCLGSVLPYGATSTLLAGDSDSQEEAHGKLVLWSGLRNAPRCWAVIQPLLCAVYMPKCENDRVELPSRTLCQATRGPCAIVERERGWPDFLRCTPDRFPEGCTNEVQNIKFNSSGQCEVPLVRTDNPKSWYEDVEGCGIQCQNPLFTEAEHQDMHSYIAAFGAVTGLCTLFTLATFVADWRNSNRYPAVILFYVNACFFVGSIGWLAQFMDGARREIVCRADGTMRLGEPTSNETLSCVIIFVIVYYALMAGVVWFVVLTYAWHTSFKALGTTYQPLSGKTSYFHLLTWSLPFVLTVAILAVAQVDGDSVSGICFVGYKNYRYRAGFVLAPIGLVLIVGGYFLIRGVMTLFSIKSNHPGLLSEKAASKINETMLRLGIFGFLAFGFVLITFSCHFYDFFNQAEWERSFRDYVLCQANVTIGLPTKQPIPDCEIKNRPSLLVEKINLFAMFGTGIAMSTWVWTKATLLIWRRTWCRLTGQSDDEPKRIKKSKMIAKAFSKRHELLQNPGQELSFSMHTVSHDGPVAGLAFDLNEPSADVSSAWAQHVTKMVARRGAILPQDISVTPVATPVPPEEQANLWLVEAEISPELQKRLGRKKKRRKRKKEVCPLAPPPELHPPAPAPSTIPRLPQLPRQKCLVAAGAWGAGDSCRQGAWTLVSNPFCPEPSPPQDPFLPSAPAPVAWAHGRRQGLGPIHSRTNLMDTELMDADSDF
# binning rule on IC50: interval 1: < 50 nM; interval 2: ≥ 50 nM and < 400 nM; interval 3: ≥ 400 nM

1) Cc1cccc(C(=O)Nc2ccc3c(c2)C[C@@H](NCc2ccc4c(c2)CCO4)C3)c1-c1ccc(C(F)(F)F)cc1 : interval 1
2) Cc1cccc(C(=O)Nc2ccc3c(c2)C[C@@H](NCc2ccccn2)C3)c1-c1ccc(C(F)(F)F)cc1 : interval 1
3) Cc1cccc(C(=O)Nc2ccc3c(c2)C[C@@H](NCc2ccc4c(c2)OC(F)(F)O4)C3)c1-c1ccc(C(F)(F)F)cc1 : interval 2
4) CCOC(=O)NC1CCc2ccc(NC(=O)c3cccc(C)c3-c3ccc(C(F)(F)F)cc3)cc2CC1 (stereo not drawn) : interval 3
5) O=C(Nc1ccc2c(c1)CCC(NS(=O)(=O)c1ccccc1F)CC2)c1ccccc1-c1ccc(C(F)(F)F)cc1 (stereo not drawn) : interval 3
6) Cc1cccc(C(=O)Nc2ccc3c(c2)CC(NCc2ccco2)C3)c1-c1ccc(C(F)(F)F)cc1 (stereo not drawn) : interval 2
7) O=C(Nc1ccc2c(c1)CC(NCc1ncc[nH]1)C2)c1cccc(C(F)(F)F)c1-c1ccc(C(F)(F)F)cc1 (stereo not drawn) : interval 3
8) Cc1cccc(C(=O)Nc2ccc3c(c2)CC(NS(=O)(=O)c2ccc(Cl)s2)C3)c1-c1ccc(C(F)(F)F)cc1 (stereo not drawn) : interval 1
9) Cc1cccc(C(=O)Nc2ccc3c(c2)CCC(NS(=O)(=O)c2cccs2)CC3)c1-c1ccc(C(F)(F)F)cc1 (stereo not drawn) : interval 2
10) Cc1cccc(C(=O)Nc2ccc3c(c2)C[C@@H](NCc2ccc(-n4ccnc4)cc2)C3)c1-c1ccc(C(F)(F)F)cc1 : interval 1
11) Cc1cccc(C(=O)Nc2ccc3c(c2)CC(NCc2c[nH]c4ccccc24)C3)c1-c1ccc(C(F)(F)F)cc1 (stereo not drawn) : interval 2
12) O=C(Nc1ccc2c(c1)CC(NCc1ccccc1)C2)c1ccccc1-c1ccc(C(F)(F)F)cc1 (stereo not drawn) : interval 2
13) Cc1cccc(C(=O)Nc2ccc3c(c2)C[C@@H](Nc2ccccc2)C3)c1-c1ccc(C(F)(F)F)cc1 : interval 1
14) Cc1cccc(C(=O)Nc2ccc3c(c2)C[C@@H](N(C)Cc2ccccn2)C3)c1-c1ccc(C(F)(F)F)cc1 : interval 3
15) COC(=O)N1CCC(CNC2Cc3ccc(NC(=O)c4cccc(C)c4-c4ccc(C(F)(F)F)cc4)cc3C2)CC1 (stereo not drawn) : interval 3
16) Cc1cccc(C(=O)Nc2ccc3c(c2)C[C@@H](NCc2scnc2C)C3)c1-c1ccc(C(F)(F)F)cc1 : interval 2
17) CC(=O)Nc1ccc(CN[C@H]2Cc3ccc(NC(=O)c4cccc(C)c4-c4ccc(C(F)(F)F)cc4)cc3C2)cc1 : interval 3
18) Cc1cccc(C(=O)Nc2ccc3c(c2)C[C@@H](NCc2cccn2C)C3)c1-c1ccc(C(F)(F)F)cc1 : interval 1
19) Cc1cccc(C(=O)Nc2ccc3c(c2)C[C@@H](NCc2ccc(Cl)o2)C3)c1-c1ccc(C(F)(F)F)cc1 : interval 1
20) Cc1ccc(-c2ccc(C(F)(F)F)cc2)c(C(=O)Nc2ccc3c(c2)CC(NCc2ccccn2)C3)c1 (stereo not drawn) : interval 3
21) CS(=O)(=O)NC1Cc2ccc(NC(=O)c3cccc(F)c3-c3ccc(C(F)(F)F)cc3)cc2C1 (stereo not drawn) : interval 2

----------
- System: gli-luciferase activity (Hh pathway) in TMHh12 cells
- METHOD_SUMMARY: "IC50 shift" gli-luciferase reporter assay in TMHh12 cells with a small molecule Smo agonist
- Type: cell-based, mouse
- TEST_SETTINGS: Mus musculus, TMHh12, TMHh12 cells, 1 nM small molecule Smo agonist; read-out: Gli_luc (1 nM Smo agonist) IC50
- Description: TM3 cells (mouse) transfected with a new proprietary reporter construct (pTA-8xGli-Luc). The pTA-8xGli-Luc reporter produces approx. 4 fold more luciferase activity than classical 8xGli-LUC. A highly responsive stable clone has been selected (TMHh12) with >10-fold signal/noise ratio and <10% CV in 384 well format. “IC50 shift” assays in TMHh12 cells. […]
QUANTITY_MEASURED: IC50 (nM)

1) Cc1cccc(C(=O)Nc2ccc3c(c2)C[C@@H](NCc2ccccn2)C3)c1-c1ccc(C(F)(F)F)cc1 [Example 6] : 19
2) O=C(Nc1ccc2c(c1)CC(NS(=O)(=O)c1cccs1)C2)c1ccc(F)cc1-c1ccc(C(F)(F)F)cc1 (stereo not drawn) [Example 90] : 5440
3) Cc1nc(CN[C@H]2Cc3ccc(NC(=O)c4cccc(C)c4-c4ccc(C(F)(F)F)cc4)cc3C2)cs1 [Example 9] : 39
4) O=C(COc1ccccc1)NC1Cc2ccc(NC(=O)c3ccccc3-c3ccc(C(F)(F)F)cc3)cc2C1 (stereo not drawn) [Example 78] : 1890
5) Cc1cccc(C(=O)Nc2ccc3c(c2)CC(NCc2nccs2)C3)c1-c1ccc(C(F)(F)F)cc1 (stereo not drawn) [Example 72] : 38
6) O=C(Nc1ccc2c(c1)CC(NCc1ccccc1)C2)c1ccccc1-c1ccc(C(F)(F)F)cc1 (stereo not drawn) [Example 56] : 165
7) Cc1cccc(C(=O)Nc2ccc3c(c2)CCC(NS(=O)(=O)c2ccccc2F)CC3)c1-c1ccc(C(F)(F)F)cc1 (stereo not drawn) [Example 106] : 5960
8) O=C(Nc1ccc2c(c1)CCC2NCc1cccs1)c1ccccc1-c1ccc(C(F)(F)F)cc1 (stereo not drawn) [Example 39] : 686
9) Cc1cccc(C(=O)Nc2ccc3c(c2)CC(NCc2ccccc2F)C3)c1-c1ccc(C(F)(F)F)cc1 (stereo not drawn) [Example 71] : 5
10) Cc1cccc(C(=O)Nc2ccc3c(c2)C[C@H](NCc2ccccc2)C3)c1-c1ccc(C(F)(F)F)cc1 [Example 27] : 12
11) O=C(Nc1ccc2c(c1)CC(NS(=O)(=O)NC1CCCCC1)C2)c1ccccc1-c1ccc(C(F)(F)F)cc1 (stereo not drawn) [Example 87] : 2070
12) Cc1cccc(C(=O)Nc2ccc3c(c2)CC(NCc2cc4ccccc4o2)C3)c1-c1ccc(C(F)(F)F)cc1 (stereo not drawn) [Example 41] : 82
13) Cc1cccc(C(=O)Nc2ccc3c(c2)CC(NCc2ccccn2)C3)c1-c1ccc(C(F)(F)F)cc1 (stereo not drawn) [Example 45] : 85
14) Cc1cccc(C(=O)Nc2ccc3c(c2)CC(NCc2cccnc2)C3)c1-c1ccc(C(F)(F)F)cc1 (stereo not drawn) [Example 66] : 246

----------
- System: gli-luciferase activity (Hh pathway) in TMHh12 cells
- METHOD_SUMMARY: "IC50 shift" gli-luciferase reporter assay in TMHh12 cells with a small molecule Smo agonist
- Type: cell-based, mouse
- TEST_SETTINGS: Mus musculus, TMHh12, TMHh12 cells, 1 nM small molecule Smo agonist; read-out: Gli_luc (1 nM Smo agonist) IC50
IC50: recorded values
QUANTITY_MEASURED: IC50 (nM)

1. Cc1cccc(C(=O)Nc2ccc3c(c2)C[C@@H](NCc2ccncc2)C3)c1-c1ccc(C(F)(F)F)cc1 : 94
2. CCCCS(=O)(=O)NC1Cc2ccc(NC(=O)c3cccc(C)c3-c3ccc(C(F)(F)F)cc3)cc2C1 (centres unmarked) : 1900
3. Cc1cccc(C(=O)Nc2ccc3c(c2)CC(NS(=O)(=O)c2cccs2)C3)c1-c1ccc(F)cc1 (centres unmarked) : 6630
4. Cc1cccc(C(=O)Nc2ccc3c(c2)C[C@@H](NS(=O)(=O)c2ccccn2)C3)c1-c1ccc(C(F)(F)F)cc1 : 904
5. Cc1cccc(C(=O)Nc2ccc3c(c2)C[C@@H](NCc2cccnc2Cl)C3)c1-c1ccc(C(F)(F)F)cc1 : 136
6. Cc1cccc(C(=O)Nc2ccc3c(c2)CC(NCc2ccccc2)C3)c1-c1ccc(C(F)(F)F)cc1 (centres unmarked) : 91
7. Cc1cccc(C(=O)Nc2ccc3c(c2)CCC(NCc2ccccc2)CC3)c1-c1ccc(Cl)cc1 (centres unmarked) : 2490
8. O=C(Nc1ccc2c(c1)CCC(NS(=O)(=O)c1ccccc1F)CC2)c1ccccc1-c1ccc(C(F)(F)F)cc1 (centres unmarked) : 3560
9. CS(=O)(=O)NC1Cc2ccc(NC(=O)c3cccc(F)c3-c3ccc(C(F)(F)F)cc3)cc2C1 (centres unmarked) : 1010
10. Cc1cccc(C(=O)Nc2ccc3c(c2)CC(NCc2ccco2)C3)c1-c1ccc(C(F)(F)F)cc1 (centres unmarked) : 141
11. COC(=O)NC(CNC1Cc2ccc(NC(=O)c3cccc(C)c3-c3ccc(C(F)(F)F)cc3)cc2C1)Cc1ccccc1 (centres unmarked) : 226
12. CCOC(=O)N[C@H]1Cc2ccc(NC(=O)c3cccc(C)c3-c3ccc(C(F)(F)F)cc3)cc2C1 : 1510
13. O=C(Nc1ccc2c(c1)CC(NCCc1ccccc1)C2)c1ccccc1-c1ccc(C(F)(F)F)cc1 (centres unmarked) : 261
14. CCCNC1Cc2ccc(NC(=O)c3cccc(C)c3-c3ccc(C(F)(F)F)cc3)cc2C1 (centres unmarked) : 651
15. Cc1cccc(C(=O)Nc2ccc3c(c2)CC(NCc2ccc(-c4ccc(Cl)cc4)o2)C3)c1-c1ccc(C(F)(F)F)cc1 (centres unmarked) : 48
16. Cc1cccc(C(=O)Nc2ccc3c(c2)C[C@@H](NCc2cncn2C)C3)c1-c1ccc(C(F)(F)F)cc1 : 592
17. Cc1cccc(C(=O)Nc2ccc3c(c2)C[C@@H](NCC2CCOC2)C3)c1-c1ccc(C(F)(F)F)cc1 (some centres unmarked) : 4530
18. Cc1cccc(C(=O)Nc2ccc3c(c2)CC(NS(=O)(=O)c2ccc(Cl)cc2)C3)c1-c1ccc(C(F)(F)F)cc1 (centres unmarked) : 324
19. COc1cccc(C(=O)Nc2ccc3c(c2)CC(NC(=O)c2ccccc2)C3)c1-c1ccc(C(F)(F)F)cc1 (centres unmarked) : 1330
20. Cc1cccc(C(=O)Nc2ccc3c(c2)CCC(NS(C)(=O)=O)CC3)c1-c1ccc(C(F)(F)F)cc1 (centres unmarked) : 4780
21. Cc1cccc(C(=O)Nc2ccc3c(c2)CCC(NCc2ccccn2)CC3)c1-c1ccc(C(F)(F)F)cc1 (centres unmarked) : 138
22. O=C(Nc1ccc2c(c1)CC(NCc1ncc[nH]1)C2)c1cccc(C(F)(F)F)c1-c1ccc(C(F)(F)F)cc1 (centres unmarked) : 13200
23. Cc1cccc(C(=O)Nc2ccc3c(c2)C[C@@H](NCc2ccc(Cl)s2)C3)c1-c1ccc(C(F)(F)F)cc1 : 35
24. Cc1ccc(-c2ccc(C(F)(F)F)cc2)c(C(=O)Nc2ccc3c(c2)CC(NCc2ccccn2)C3)c1 (centres unmarked) : 8680
25. COC(=O)N1CCC(CNC2Cc3ccc(NC(=O)c4cccc(C)c4-c4ccc(C(F)(F)F)cc4)cc3C2)CC1 (centres unmarked) : 7000
26. Cc1cccc(C(=O)Nc2ccc3c(c2)CC(NS(=O)(=O)c2cccs2)C3)c1-c1ccc(C(F)(F)F)cc1 (centres unmarked) : 1420
27. Cc1cccc(C(=O)Nc2ccc3c(c2)CC(NC(=O)c2ccccc2)C3)c1-c1ccc(C(F)(F)F)cc1 (centres unmarked) : 772
28. O=C(Nc1ccc2c(c1)CC(NS(=O)(=O)c1ccc(F)cc1)C2)c1ccccc1-c1ccc(C(F)(F)F)cc1 (centres unmarked) : 1050
29. O=C(Nc1ccc2c(c1)C[C@@H](NCc1ccccn1)C2)c1cccc(C(F)(F)F)c1-c1ccc(C(F)(F)F)cc1 : 831
